B1: library; numbered along this chain (parent)
chain: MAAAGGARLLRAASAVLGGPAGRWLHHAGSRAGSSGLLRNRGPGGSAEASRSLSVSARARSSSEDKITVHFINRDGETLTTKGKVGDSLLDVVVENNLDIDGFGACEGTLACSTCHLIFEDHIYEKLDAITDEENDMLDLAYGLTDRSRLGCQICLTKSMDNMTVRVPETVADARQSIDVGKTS

variants of: B1; test: scaled log2 fold change in cell abundance, elesclomol vs control (0 = silent mean, 1 = nonsense mean) (scaled log2 ratio); higher = higher viability under elesclomol (loss of FDX1 cuproptosis function); conditions: with ABC1 FDX1 KO; elesclomol 5 nM; glucose 10 mM; 14 days;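 further: variant abundance is its share of total variant reads in each endpoint sample, from next-generation sequencing of the integrated ORF PCR-amplified out of genomic DNA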
metric: scaled log2 fold change
Write the value as a bare number.

residue_change=N96R recorded_value=0.204
residue_change=A3E recorded_value=0.299
residue_change=V94M recorded_value=-0.224
residue_change=L117D recorded_value=1.19
residue_change=C155H recorded_value=-1.03
residue_change=D101K recorded_value=0.0609
residue_change=G45P recorded_value=-0.0714
residue_change=A47E recorded_value=0.691
residue_change=Q153V recorded_value=-0.0289
residue_change=G83M recorded_value=0.483

Shift focus to the following entry.
Look up and state reported scaled log2 fold change for G151F
1.04

Data origin, for the record: the supplement of paper PMC12855868
